Origin of values: patent US20170189376A1

test system: MyLa cells; assay: MTT-based viability assay, MyLa cells; conditions: Homo sapiens, 72 h, read-out: IC50 single treatment Dox
Measurement type: pIC50
One number for each entry, as −log10 of the molar value.

Looking for the measured pIC50 of COc1cccc2c1C(=O)c1c(O)c3c(c(O)c1C2=O)C[C@@](O)(C(=O)CO)C[C@@H]3O[C@H]1C[C@H](N)[C@H](O)[C@H](C)O1 [Dox, doxorubicin, reference compound] , can you help?
7.72

###

tested on: Hut78 cells; assay: MTT-based viability assay, Hut78 cells; settings: Homo sapiens, HuT78, 72 h, read-out: IC50 single treatment Dox
Measurement type: pIC50
One number for each entry, as −log10 of the molar value.

Could you share which pIC50 value was measured for COc1cccc2c1C(=O)c1c(O)c3c(c(O)c1C2=O)C[C@@](O)(C(=O)CO)C[C@@H]3O[C@H]1C[C@H](N)[C@H](O)[C@H](C)O1 [Dox, doxorubicin, reference compound] ?
7.57
